Study target: T1, human single-chain CD1a-β2M recombinant protein (Human B2M-CD1a ECD-Avi-His6) (human)
T1 construct: Biotinylated in the HTRF, phage selection and Gyrolab assays; also called human CD1a; CD1a protein
T1 sequence (chain, as listed by the source limits assumed): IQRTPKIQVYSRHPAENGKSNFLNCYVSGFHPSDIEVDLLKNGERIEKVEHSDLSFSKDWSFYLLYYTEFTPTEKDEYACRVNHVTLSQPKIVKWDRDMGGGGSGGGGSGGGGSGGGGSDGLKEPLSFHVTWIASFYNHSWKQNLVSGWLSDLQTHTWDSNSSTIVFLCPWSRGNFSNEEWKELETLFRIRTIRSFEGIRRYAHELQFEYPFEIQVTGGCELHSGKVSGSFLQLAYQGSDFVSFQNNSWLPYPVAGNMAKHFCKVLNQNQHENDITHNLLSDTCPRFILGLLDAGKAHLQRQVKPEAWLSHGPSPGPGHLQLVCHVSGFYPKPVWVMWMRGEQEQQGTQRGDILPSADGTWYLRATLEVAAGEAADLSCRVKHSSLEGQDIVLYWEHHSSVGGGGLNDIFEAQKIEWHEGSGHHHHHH
Measurement notes: SPR (Biacore), IgG; antigen taken as human CD1a
Measure name: pKd
Value format note: pKd is -log10 of concentration (mol/L); just state the number.

**Query** Quick check: pKd of Ab610 (antibody, human IgG1, kappa, V domains shown, Optimized variant of Ab138; human IgG1 effector null / kappa; HC with or without terminal lysine) VH: EVQLVESGGGLVQPGGSLRLSCAASGFDFTDHYMHWVRQAPGKGLEWVAHTRDKAGGYTTESNPAVKGRFTISRDNAKNSLYLQMNSLRAEDTAVYYCARETTRIPTGWFAYWGQGTLVTVSS VL: DIQMTQSPSSLSASVGDRVTITCLASEDIYFDLAWYQQKPGKAPKLLIYGGDRLKEGVPSRFSGSGSGTDYTLTISSLQPEDFATYYCQQSESYPYTFGQGTKLEIKR ?
**Result** 9.68
